assay: Pharmacokinetics after oral single- and multiple-dose administration; format: in vivo, human; conditions: both sexes, human, in vivo, oral, as stated in MDSS results
assay_endpoint: half-life

half-life for Cc1ccc(Cn2nc(CCCc3ccc(OC(C)(C)C(=O)O)cc3)[nH]c2=O)cc1 ?
~10 h
